Where do the numbers come from? From PubChem BioAssay (NCATS).

- ASSAY_COMMENT: qHTS profiling of the MIPE4 collection as inhibitors of Plasmodium falciparum (HB3) proliferation (AID 743347);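 note: plate controls were DMSO vehicle wells for no effect and artemisinin wells for full effect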
- RUN_PARAMETERS: P. falciparum HB3 in erythrocytes, SYBR Green DNA, 72 h; at 28.5 µM (top of the series) unless noted
I'd be grateful if you could share measured growth, % of control for these entries.
Unit % implied. Number only.

Enquiry: What value of growth, % of control has been reported for the following molecule? "C=CC(=O)Nc1cccc(Oc2nc(Nc3ccc(N4CCN(C)CC4)cc3)ncc2Cl)c1"
Return: 5.58

Enquiry: Entry "Cc1ccc(C(=O)Nc2cccc(C(F)(F)F)c2)cc1-c1ccc2nc(NCCN3CCOCC3)ncc2c1" please
Return: 8.15

Enquiry: Entry CC1(O)CC(c2nc(-c3ccc4ccc(-c5ccccc5)nc4c3)c3c(N)nccn23)C1 (stereo not given) please
Return: 5.32

Enquiry: Entry "Clc1cccc(-c2nnnn2Cc2cccnc2)c1Cl" please
Return: 86.1
